This collection of values is drawn from patent US9872861B2.

Molecular target: Bcl-XL (Homo sapiens, UniProt Q07817)
Sequence (Q07817 whole entry): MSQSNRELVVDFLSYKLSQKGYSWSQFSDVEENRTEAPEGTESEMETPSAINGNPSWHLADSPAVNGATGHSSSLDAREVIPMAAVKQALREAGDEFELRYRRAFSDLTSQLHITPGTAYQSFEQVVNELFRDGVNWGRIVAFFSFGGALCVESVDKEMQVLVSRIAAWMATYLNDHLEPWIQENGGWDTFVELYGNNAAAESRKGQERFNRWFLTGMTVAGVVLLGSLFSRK
MEASURED_PROPERTY: Ki (nM)

Observe how each entry below is paired with its result.
// Ki value for CC1(C)CCC(CN2CCN(c3ccc(C(=O)NS(=O)(=O)c4ccc(NCC5CCOCC5)c([N+](=O)[O-])c4)c(Oc4ccc5[nH]ccc5c4)c3)CC2)=C(c2ccc(Cl)cc2)C1 [Compound 3] : 151

// Ki value for CC1(C)CCC(CN2CCN(c3ccc(C(=O)NS(=O)(=O)c4ccc(N[C@H]5CC[C@H](N6CCOCC6)CC5)c([N+](=O)[O-])c4)c(Oc4cnc(N)c(Cl)c4)c3)CC2)=C(c2ccc(Cl)cc2)C1 [Compound 17] : 12

// Ki value for CC1(C)CCC(CN2CCN(c3ccc(C(=O)NS(=O)(=O)c4cnc(OC[C@H]5CC[C@H](O)CC5)c(Cl)c4)c(Oc4cc(F)cc5[nH]ncc45)c3)CC2)=C(c2ccc(Cl)cc2)C1 [Compound 14] : 20

// Ki value for CC1(C)CCC(CN2CCN(c3ccc(C(=O)NS(=O)(=O)c4cnc(OCC5(F)CCN(C6COC6)CC5)c(Cl)c4)c(Oc4cnc5[nH]ccc5c4)c3)CC2)=C(c2ccc(Cl)cc2)C1 [Compound 13] : 9

1. CC1(C)CCC(CN2CCN(c3ccc(C(=O)NS(=O)(=O)c4ccc(NC[C@H]5CN(C6CC6)CCO5)c([N+](=O)[O-])c4)c(Oc4cnc5[nH]ccc5c4)c3)CC2)=C(c2ccc(Cl)cc2)C1 [Compound 7]
2. CC1(C)CCC(CN2CCN(c3ccc(C(=O)NS(=O)(=O)c4ccc(OCC5(F)CCOCC5)c([N+](=O)[O-])c4)c(Oc4cnc5[nH]ccc5c4)c3)CC2)=C(c2ccc(Cl)cc2)C1 [Compound 16]
3. CO[C@H]1CC[C@H](CNc2ccc(S(=O)(=O)NC(=O)c3ccc(N4CCN(CC5=C(c6ccc(Cl)cc6)CC(C)(C)CC5)CC4)cc3Oc3cnc4[nH]ccc4c3)cc2[N+](=O)[O-])CC1 [Compound 5]
Hey, quick one: sort these by Ki, low to high? Please list the labels according to the requested order.
1, 2, 3
(1: 9.4 nM, 2: 15 nM, 3: 126 nM)

* * *

Tested on: FL5.12-Bcl-XL cells
Assay: Cellular efficacy in FL5.12 cells dependent on Bcl-XL
Format: cell-based, murine
Details: Mus musculus, 3% FBS
MEASURED_PROPERTY: EC50 (nM)

Observe how each entry below is paired with its result.
// EC50 value for CC1(C)CCC(CN2CCN(c3ccc(C(=O)NS(=O)(=O)c4ccc(NCC5CCOCC5)c([N+](=O)[O-])c4)c(Oc4cnc5[nH]ccc5c4)c3)CC2)=C(c2ccc(Cl)cc2)C1 [Compound 1] : 261

// EC50 value for CC1(C)CCC(CN2CCN(c3ccc(C(=O)NS(=O)(=O)c4ccc(N[C@H]5CC[C@H](N6CCOCC6)CC5)c([N+](=O)[O-])c4)c(Oc4cnc(N)c(Cl)c4)c3)CC2)=C(c2ccc(Cl)cc2)C1 [Compound 17] : 65

a. CO[C@H]1CC[C@H](CNc2ccc(S(=O)(=O)NC(=O)c3ccc(N4CCN(CC5=C(c6ccc(Cl)cc6)CC(C)(C)CC5)CC4)cc3Oc3cnc4[nH]ccc4c3)cc2[N+](=O)[O-])CC1 [Compound 5]
b. CC1(C)CCC(c2ccc(Cl)cc2)=C(CN2CCN(c3ccc(C(=O)NS(=O)(=O)c4ccc(N[C@H](CCN5CCOCC5)CSc5ccccc5)c(S(=O)(=O)C(F)(F)F)c4)cc3)CC2)C1 [Compound 2, reference compound]
c. CC1(C)CCC(CN2CCN(c3ccc(C(=O)NS(=O)(=O)c4ccc(OCC5(F)CCOCC5)c([N+](=O)[O-])c4)c(Oc4cnc5[nH]ccc5c4)c3)CC2)=C(c2ccc(Cl)cc2)C1 [Compound 16]
d. CN1CCN(Nc2ccc(S(=O)(=O)NC(=O)c3ccc(N4CCN(CC5=C(c6ccc(Cl)cc6)CC(C)(C)CC5)CC4)cc3Oc3cnc4[nH]ccc4c3)cc2[N+](=O)[O-])CC1 [Compound 10]
Hey, quick one: sort these by EC50, low to high? Please list the labels according to the requested order.
b, c, a, d
